- Tested on: PC-3
- EXPERIMENT SUMMARY: NCI tumour cell line growth inhibition, 48 h
Activity calls are given as the source filed them. Rule as the data show it: active = GI50 up to about 1.1 µM and inactive = higher.
# maps each entry to its GI50

Consider the worked cases shown below.
compound=COP(=O)(OC)[C@@](O)(c1ccccc1)[C@@H](O)[C@@H](O)c1ccccc1 recorded_endpoint=GI50 result="> 100 µM (inactive)"
compound=Cc1cc(S(=O)(=O)Nc2nc(N)n(-c3ccccc3)n2)c(S)cc1Cl recorded_endpoint=GI50 result="> 100 µM (inactive)"
compound="O=C1C=CC(=O)c2c(O)ccc(O)c21 [NAPHTHAZALIN]" recorded_endpoint=GI50 result="12.8 µM (inactive)"
compound="COC(=O)c1ccccc1C1CN=NC12Cc1cc(C)ccc1C2=O (stereo unspecified)" recorded_endpoint=GI50 result="94.4 µM (inactive)"
compound="COc1ccc(C2SCC(=O)N2NC(=O)C(C)Oc2ccccc2Cl)cc1 (stereo unspecified)" recorded_endpoint=GI50 result="33.7 µM (inactive)"
compound="CC1(C)CCCCCCCCCC2CC2CCC(C)(C)C1=O (stereo unspecified)" recorded_endpoint=GI50 result="28.8 µM (inactive)"

[Q] Give its GI50 value. Item: COc1ccc(-n2c(N)c(C#N)c(C#N)c2-c2ccco2)cc1
[A] 46.3 µM (inactive)

[Q] Give its GI50 value. Item: N#CS/C(Cl)=C(/C(Cl)=C(Cl)Cl)[N+](=O)[O-]
[A] 35.2 µM (inactive)

[Q] Give its GI50 value. Item: O=C(c1cccs1)N(Cc1cccnc1)C(=S)N(Cc1cccnc1)C(=O)c1cccs1
[A] 41.8 µM (inactive)

[Q] Give its GI50 value. Item: COC(=O)c1cc(CC2Cc3cc4c(cc3C2)CCC4)cc2c1CCC2
[A] 81.8 µM (inactive)

[Q] Give its GI50 value. Item: COc1c(C(=O)NCCN(CCNC(=O)c2cccc(-c3cccc(C(=O)N(C)C)c3OC)c2OC)CCNC(=O)c2cccc(-c3cccc(C(=O)N(C)C)c3OC)c2OC)cccc1-c1cccc(C(=O)N(C)C)c1OC
[A] 38.4 µM (inactive)

###

- System: HOP-92
- EXPERIMENT SUMMARY: NCI tumour cell line growth inhibition, 48 h
Activity calls are given as the source filed them. No stated cut-off is given here; in the data, active = GI50 up to about 1.1 µM and inactive = higher.
Result category, one only: 1.0 (active), 0.0 (inactive)

compound=COc1ccc(OC)c(NC(=O)C2=C(C)NC(C)=C(C(=O)Nc3cc(OC)ccc3OC)C2c2ccccc2)c1 label=0.0
compound=O=C(NS(=O)(=O)Nc1ccc(Cl)cc1)OCc1ccc(Cl)cc1Cl label=0.0
compound="CC(C)C1OC(=O)/C=C/C=C/C=C/C=C/C=C/CC(O)C(C)C(O)CC(O)CC(O)CC(O)CC(O)CC(O)CC(O)/C=C/C1C (centres undefined)" label=0.0
compound=COc1cc(CC(=O)c2ccc3c(c2)OCO3)cc(OC)c1OC label=0.0
compound=Cn1c2ccc(Cl)cc2c2ccc3c(c21)C(=O)C=CC3=O label=0.0
compound=COc1ccccc1/C=C\c1cc(OC)c(OC)c(OC)c1 label=0.0

[Q] Dear all, I need the recorded test outcome for COc1cc2c(cc1O)[C@@H]1Cc3c(cc(OC)c(OC)c3Oc3cc4c(cc3OC)CCN(C)[C@@H]4Cc3ccc(O)cc3)[C@H](C2)N1C , thank you.
[A] 0.0

[Q] Dear all, I need the recorded test outcome for CCSC1(SCC)CC(Cc2ccc(OC)cc2)N(/C=N/C(C)(C)C)C1 (centres undefined) , thank you.
[A] 1.0

[Q] Dear all, I need the recorded test outcome for COC(=O)[C@H]1COC(=O)N1 , thank you.
[A] 0.0
